Source: PubChem BioAssay (NCI)

Tested on: U251 CNS
EXPERIMENT_NOTES: NCI-60 one-dose screen, 48 h (100 = growth as untreated, 0 = no growth, -100 = all killed)
MEASUREMENT_PARAMETERS: 10 µM unless noted
About 83,000 compounds went through this panel and 20% of them were active in at least one assay; those are over-represented in the sample as a whole.
OBSERVATION_TYPE: growth (%)
Answers are plain numbers, in %.

Below: 6 molecules and their reported growth.
Supply reported growth belonging to this molecule: "CC(=O)O[C@H](C[C@H](C(C)C)N(C)C(=O)[C@@H](NC(=O)[C@H]1CCCCN1C)C(C)C)c1nc(C(=O)N[C@@H](Cc2ccccc2)C[C@H](C)C(=O)O)c(CCOCc2ccccc2)s1"
11.5

Supply reported growth belonging to this molecule: "C[C@@H]1C[C@@]2(C)[C@@H](CC[C@@H]3[C@@H]2CC[C@]2(C)C(=O)CC[C@@H]32)CC1=O"
101

Supply reported growth belonging to this molecule: "COC(=O)[C@@H](C)C[C@H](Cc1ccccc1)NC(=O)c1nc([C@@H](C[C@H](C(C)C)N(C)C(=O)[C@@H](NC(=O)[C@H]2CCCCN2C)C(C)C)OC(C)=O)sc1C"
14.6

Supply reported growth belonging to this molecule: "CC(C)[C@]12O[C@H]1[C@@H]1O[C@]13[C@]1(O[C@H]1C[C@H]1c4c(C(=O)c5ccccc5)oc(OC(=O)c5ccccc5)c4CC[C@@]13C)[C@@H]2O"
12.1

Supply reported growth belonging to this molecule: "COc1cccc2c1c(C(=O)C(=O)Nc1cc(C)no1)cn2Cc1ccc(F)cc1"
51.7

Supply reported growth belonging to this molecule: "COc1ccc(/C=C\c2cc(OC)c(OC)c(OC)c2)cc1NS(=O)(=O)c1ccc(Cl)cc1"
77.8

For every item below, please supply its growth.
1. C[C@]12CC[C@H]3[C@@H](C[C@@H]4SC(Nc5ccccc5)=N[C@@]45CC(O)CC[C@]35C)[C@@H]1CCC2O (stereo partly specified)
2. Cc1cc(C)c(CBr)c(C)c1

-30.1
95.3

For every item below, please supply its growth.
1. CC1=C2[C@@H](CC1)[C@]1(C)O[C@@](C(C)C)(C[C@H]1O)[C@H]2OC(=O)C1CC1c1ccccc1 (stereo partly specified)
2. Fc1ccc2c(c1)c(-c1nc(-c3c[nH]c4ncccc34)cs1)cn2CCCCN1CCCCC1
3. CC[C@H](C)[C@H](NC(=O)[C@H]1CCCCN1C)C(=O)N(C)[C@H](C[C@@H](OC(C)=O)c1nc(C(=O)NC23CC(C(=O)OC)(C2)C3)cs1)C(C)C
4. Cn1cccc1C1CC(=O)N(CCC[Se]C#N)C1=O (stereo unspecified)

[84.3, -87.7, 6.7, -85.5]

For every item below, please supply its growth.
1. CCCCCCCC(=O)OCC(=O)[C@]1(O)Cc2c(O)c3c(c(O)c2[C@@H](OC2CC(N)C(O)C(C)O2)C1)C(=O)c1c(OC)cccc1C3=O (stereo partly specified)
2. CN1CC(=O)N(O)C1(C)c1cccnc1 (stereo unspecified)
3. CC(=O)O[C@H]1C(=O)[C@@]2(C)[C@H]([C@H](OC(=O)c3ccccc3)[C@]3(O)C[C@H](OC(=O)[C@H](OC(=O)OCC4COC(C)(C)O4)[C@@H](NC(=O)c4ccccc4)c4ccccc4)C(C)=C1C3(C)C)[C@]1(OC(C)=O)CO[C@@H]1C[C@@H]2O (stereo partly specified)
4. O=c1[nH]c2ccc([N+](=O)[O-])cc2c(=O)o1
5. C=CC12CCN(CC1)C(C(O)c1ccnc3ccc(OC)cc13)C2 (stereo unspecified)

[-46.5, 102, 34.4, 106, 80.6]
